Measured inhibition accompanies every entry in the list below.
Assay: inhibitors of TNFa-induced NFkB p65 translocation, primary screen, imaging, HUVEC, MLSMR starter and 10KST1 sets (AID 438);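 note: compound added about 3h40 before a 20 min TNFalpha stimulation; signal is the nuclear over cytoplasmic p65 intensity ratio per well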
Details: HUVEC TNFa-induced p65 nuclear translocation; at 2 µM, stronger effect = higher value, 0% TNFa-plus-vehicle, 100% no-TNFa wells
Give the number; % is assumed, so skip it.

Examples with answers:
Smiles structure	Endpoint value
Cc1ccccc1CNS(=O)(=O)c1ccc2c(c1)OCCO2	3.6
CCN(C(=O)CN1CCN(c2ccccc2OC)CC1)c1c(N)n(Cc2ccccc2)c(=O)[nH]c1=O	1.1
Cc1cc2c(=O)n(CC(=O)N3CCN(c4ccccc4)CC3)cnc2s1	-22.3
COc1ccccc1N(CC(=O)NCc1ccccc1)S(C)(=O)=O	-8.2
Cc1ncoc1C(=O)Nc1ccccc1C(N)=O	3.5

// next item, inhibition requested
[ask] Identify measured inhibition corresponding to `Cc1cc(C)c2nc(N)sc2c1`
[reply] 6.3
